subject.of.test: Class 1 histone deacetylase (Homo sapiens, UniProt Q13547+O15379+Q92769+Q9BY41)
experiment.summary: Inhibition Class 1 histone deacetylase in human HeLa nuclear extracts using Fluor-de- Lys-green substrate by fluorescence assay
Format: cell-free
readout: IC50 (nM)

Consider the worked cases shown below.
COc1cc(CNCc2ccc(/C=C/C(=O)NO)cc2)cc(OC)c1 | 415
COc1ccccc1CNCc1ccc(/C=C/C(=O)NO)cc1 | 278

A = COc1ccc(CNCc2ccc(/C=C/C(=O)NO)cc2)cc1
B = COc1ccc(OC)c(CNCc2ccc(/C=C/C(=O)NO)cc2)c1
C = COc1cccc(CNCc2ccc(/C=C/C(=O)NO)cc2)c1
Put the items in order so that reported IC50 rises from first to last. Arrange the labels as the request states and list them. A, B, C

I = COc1ccc(CNCc2ccc(/C=C/C(=O)NO)cc2)cc1OC
II = COc1cccc(OC)c1CNCc1ccc(/C=C/C(=O)NO)cc1
Would you kindly point out which of I and II has the smaller IC50 figure? Identify your pick by its label. II
